assay: physchem; assay type: physicochemical; settings: 25 °C, aqueous with cosolvent or surfactant or cyclodextrin, thermodynamic from solid, solubility of capsaicin gel formulations
readout_name: solubility at 4 days (µg/mL)
Answer with a number only, understood to be in µg/mL.

QUERY: # input compound: COc1cc(CNC(=O)CCCC/C=C/C(C)C)ccc1O [Capsaicin] ; wanted: its solubility at 4 days
RESULT: 2000

* * *

test: physchem; type: physicochemical; details: 2 °C, pH 7, aqueous with cosolvent or surfactant or cyclodextrin, thermodynamic from solid, Indicative solubility of capsaicin, Concentration mg/ml
readout_name: solubility at 7 days (µg/mL)
Answer with a number only, understood to be in µg/mL.

QUERY: # input molecule: `COc1cc(CNC(=O)CCCC/C=C/C(C)C)ccc1O` ; wanted: its solubility at 7 days
RESULT: 2000
